Values were extracted from ChEMBL document CHEMBL5257021.

tested on: MDA-MB-231; test: Cytotoxicity against human MDA-MB-231 cells expressing Y1R assessed as reduction in cell viability treated for 8 hrs followed by culturing in proliferation medium for 72 hrs by resazurin assay; conditions: read-out: IC50
measured.endpoint: pIC50
The scale used: pIC50 is minus the common logarithm of the concentration in molar units.

What the record says about CN(Cc1cnc2nc(N)nc(N)c2n1)c1ccc(C(=O)N[C@@H](CCC(=O)O)C(=O)O)cc1 [METHOTREXATE] : pIC50 is 4.82

###

test system: T47D (Homo sapiens); experiment: Cytotoxicity against human T47D cells expressing Y1R assessed as reduction in cell viability treated for 8 hrs followed by culturing in proliferation medium for 72 hrs by resazurin assay
measured.endpoint: IC50 (nM)
Please respond with the number in nM and leave the unit unwritten.

compound CN(Cc1cnc2nc(N)nc(N)c2n1)c1ccc(C(=O)N[C@@H](CCC(=O)O)C(=O)O)cc1 [METHOTREXATE] , IC50 observed: 500
